System: 786-0 renal
Experiment: NCI-60 one-dose screen, 48 h (100 = growth as untreated, 0 = no growth, -100 = all killed)
Conditions: 10 µM
The panel holds about 83,000 compounds, 20% with a hit somewhere; the sample as a whole holds those more often.

[
  {
    "compound": "COc1cc(C2CC(c3ccc(Nc4ccnc5cc(Cl)ccc45)cc3)=NN2c2ccc(Cl)cc2)cc(OC)c1OC (configuration not stated)",
    "growth [%]": 68.8
  },
  {
    "compound": "O=[N+]([O-])c1ccc(N/N=C/c2cccc3ccccc23)nc1",
    "growth [%]": 99.2
  },
  {
    "compound": "O=C(Nc1ccc(CO)cc1)c1ccccc1Nc1ccnc(C(F)(F)F)c1",
    "growth [%]": 102
  },
  {
    "compound": "COc1cc(Nc2ccnc(NCCCNc3ccnc4cc(Cl)ccc34)n2)cc(OC)c1",
    "growth [%]": -90.9
  },
  {
    "compound": "CN(C)c1ccc(N=C2C=CC(=O)c3ccccc32)cc1",
    "growth [%]": 90.3
  },
  {
    "compound": "O=C(N/N=C/c1ccccc1)C(Oc1ccccc1)c1ccccc1 (configuration not stated)",
    "growth [%]": 107
  },
  {
    "compound": "COc1ccc(-c2nc3sccn3c2-c2nc3c([nH]2)C(=O)c2ccccc2C3=O)cc1",
    "growth [%]": 89.4
  },
  {
    "compound": "COc1ccccc1/C=C/C(=O)c1ccccc1",
    "growth [%]": 98.4
  },
  {
    "compound": "COc1ccc(OC)c2c1C(=O)CC2C (configuration not stated)",
    "growth [%]": 108
  },
  {
    "compound": "O=C(CCCCC(=O)Nc1ccc2c(c1)/C(=C/c1ccc[nH]1)C(=O)N2)NO",
    "growth [%]": 94.4
  },
  {
    "compound": "COc1cc(/C=N/NC(=O)c2ccccc2Nc2cccc(C(F)(F)F)c2)cc(OC)c1OC",
    "growth [%]": 177
  },
  {
    "compound": "O=C(Nc1ccc(Cl)cc1)N1NC(c2ccc(Cl)cc2)C=C1c1ccccc1 (configuration not stated)",
    "growth [%]": 92.1
  },
  {
    "compound": "COc1cc(-c2nc(Nc3nc4ccccc4s3)[nH]c(=O)c2C#N)cc(OC)c1O",
    "growth [%]": 101
  },
  {
    "compound": "CC/C(=N\\N=C(/CC)c1ccc(Br)cc1)c1ccc(Br)cc1",
    "growth [%]": 98.9
  },
  {
    "compound": "COc1ccc(NC2=NC(C)(CO)CS2)cc1 (configuration not stated)",
    "growth [%]": 105
  },
  {
    "compound": "CC(=O)N(C)c1ccc(Nc2ccc(Nc3ccc(N(C)C(C)=O)cc3)c3c2C(=O)c2ccccc2C3=O)cc1",
    "growth [%]": 78.7
  },
  {
    "compound": "Cc1ccc(-c2nc(/C=C3/C(=O)N(C)c4ccc(F)cc43)c3ccccn23)cc1",
    "growth [%]": 107
  },
  {
    "compound": "CN(C)CCCn1c(=O)c2ccccc2c2cnc3[nH]ccc3c21",
    "growth [%]": 15.2
  },
  {
    "compound": "CCOC(=O)N1C=CC2C=CC1C1C=CC=CC2N1C(=O)OCC (configuration not stated)",
    "growth [%]": 105
  },
  {
    "compound": "CS(=O)(=O)Nc1ccc(Nc2c3ccccc3nc3cc(N)ccc23)cc1",
    "growth [%]": 2.37
  },
  {
    "compound": "CCCCCCCCCCCCCCCCCC(=O)OCCCCCCC",
    "growth [%]": 114
  },
  {
    "compound": "Cc1cccc(C)c1NC(=O)c1sc2nc3c(cc2c1N)C(=O)CCC3",
    "growth [%]": 92.2
  }
]

---

Tested on: BT-549 breast
Assay: NCI-60 one-dose screen, 48 h
Details: 10 µM
This is part of a sample that, as a whole, favours compounds with a hit. Of some 83,000 tested, about 20% had one in any assay. Calls of active or inactive are those of the source. Rule for the calls: active = growth percent below 10; inactive = the rest.
Outcomes: active, inactive

[
  {
    "molecule": "COc1ccc(Cn2c(C(N)=O)cc3c2-c2nc(N)ncc2CCC3)cc1",
    "class.name": "inactive"
  },
  {
    "molecule": "O=C(Nc1cccc(-n2cc(-c3ccncc3)c(-c3cc(O)cc(Cl)c3)n2)c1)Nc1ccc(Cl)c(C(F)(F)F)c1",
    "class.name": "inactive"
  },
  {
    "molecule": "Cc1nc2oc3ccccc3c(=O)c2cc1C(=O)NCc1ccccc1",
    "class.name": "inactive"
  },
  {
    "molecule": "O=C(/C=C/c1cc2ccccc2[nH]c1=O)c1ccc2c(c1)OCO2",
    "class.name": "inactive"
  },
  {
    "molecule": "COC(=O)C1(C)Cc2cc(OC(C)=O)c(OC(C)=O)cc2N1 (stereo unspecified)",
    "class.name": "inactive"
  },
  {
    "molecule": "Nc1nc(N)c2c(ccc3nccc32)[nH]1",
    "class.name": "inactive"
  },
  {
    "molecule": "Cc1ccc(NC(=O)NC2CCCCC2)cc1",
    "class.name": "inactive"
  },
  {
    "molecule": "O=C1/C(=C\\c2ccc(F)cc2)CN(C(=O)c2ccccc2F)C/C1=C\\c1ccc(F)cc1",
    "class.name": "active"
  },
  {
    "molecule": "CC(=O)N(C)c1ccc(Nc2ccc(Nc3ccc(N(C)C(C)=O)cc3)c3c2C(=O)c2ccccc2C3=O)cc1",
    "class.name": "inactive"
  },
  {
    "molecule": "CCN(CC)CCSCCN(CC)CC",
    "class.name": "inactive"
  },
  {
    "molecule": "COc1ccc(Nc2ncnc3c2c(SC)nn3-c2ccccc2)cc1",
    "class.name": "inactive"
  }
]

---

Tested on: U251 CNS
Experiment: NCI-60 one-dose screen, 48 h (100 = growth as untreated, 0 = no growth, -100 = all killed)
Settings: 10 µM
Compounds without any hit were thinned out: in the full panel of roughly 83,000, 20% have a hit.
growth strictly under 40% means 1; at 40% or over means -1.

[
  {
    "compound": "Nc1c(C(=O)Nc2cccc3ccccc23)sc2nc3c(cc12)C(=O)CCC3",
    "class.name": 1
  },
  {
    "compound": "C[N+](C)(C)c1ncnc2nc[nH]c12",
    "class.name": -1
  },
  {
    "compound": "Cn1c([N+](=O)[O-])cnc1/C=C1\\Oc2ccc(Cl)cc2C1=O",
    "class.name": 1
  },
  {
    "compound": "COc1cc(-c2cc(/C=C/C(=O)c3ccc(F)c(F)c3)[nH]n2)cc(OC)c1OC",
    "class.name": -1
  },
  {
    "compound": "COc1ccc(/C=C2/CN(C(=O)c3ccccc3F)C/C(=C\\c3ccc(OC)cc3)C2=O)cc1",
    "class.name": 1
  },
  {
    "compound": "CCN1CCN(c2nc3ccccc3c3c(=O)c4ccccc4sc23)CC1",
    "class.name": 1
  },
  {
    "compound": "O=C(Nc1ccncc1)C(=O)c1cn(S(=O)(=O)c2cc(Cl)cc(Cl)c2)c2ccccc12",
    "class.name": -1
  },
  {
    "compound": "COc1cc2cc3c(nc2cc1OC)CCN3Cc1ccc(NC(=O)Nc2ccc(F)cc2F)cc1",
    "class.name": -1
  },
  {
    "compound": "COc1ccc(-c2nc3sc(C4CC4)nn3c2/C=C2/C(=O)Nc3ccc(OC)cc32)cc1",
    "class.name": -1
  },
  {
    "compound": "Cc1[nH]nc2c1C(c1cnn(C)c1)C(C#N)=C(N)O2 (stereo not given)",
    "class.name": -1
  },
  {
    "compound": "O=C(O)c1ccc(P(=O)(O)O)c([N+](=O)[O-])c1",
    "class.name": -1
  },
  {
    "compound": "Cc1ccc2oc3nc(C)c(C(=O)NCc4ccccc4)cc3c(=O)c2c1",
    "class.name": -1
  },
  {
    "compound": "COc1cc(Cl)cc(-c2nn(-c3cccc(NC(=O)c4ccc(Cl)c(Cl)c4)c3)cc2-c2ccncc2)c1",
    "class.name": -1
  },
  {
    "compound": "CCN(CCCCCCCCCCN1CC(=O)N(CCCCCCCCCCN(CC)Cc2ccccc2OC)CC1=O)Cc1ccccc1OC",
    "class.name": 1
  },
  {
    "compound": "C#Cc1ccc(-n2c(/C=C/c3ccc(O)cc3)nc3ncccc3c2=O)cc1",
    "class.name": -1
  },
  {
    "compound": "O=C1OCC2=C1C(c1cccc(Br)c1)c1cc3c(cc1N2CCO)CCC3 (stereo not given)",
    "class.name": 1
  },
  {
    "compound": "N#CCCN1C/C(=C/c2ccc(Br)cc2)C(=O)/C(=C/c2ccc(Br)cc2)C1",
    "class.name": 1
  },
  {
    "compound": "COc1cc(/C(=C2/O[C@@H]([C@H]3COC(C)(C)O3)[C@H]3OC(C)(C)O[C@@H]23)c2ccc3ccccc3c2)cc(OC)c1OC",
    "class.name": 1
  },
  {
    "compound": "CC(=O)OCc1cc(-c2nc3ccccc3[nH]c2=O)nn1-c1ccc(Cl)cc1",
    "class.name": -1
  },
  {
    "compound": "COc1ccc(-c2nc3sccn3c2-c2nc3c([nH]2)C(=O)c2ccccc2C3=O)cc1",
    "class.name": -1
  },
  {
    "compound": "CC/C(=C(/c1ccc(OCCN(C)C)cc1)c1ccc(OC(=O)CCC(=O)c2c(C)[nH]c(/C=C3\\N=C(c4ccc[nH]4)C=C3OC)c2C)cc1)c1ccccc1",
    "class.name": 1
  },
  {
    "compound": "CC/C(=C(/c1ccc(OCCN(C)C)cc1)c1ccc(OC(=O)CCCCC(=O)c2c(C)[nH]c(/C=C3\\N=C(c4ccc[nH]4)C=C3OC)c2C)cc1)c1ccccc1",
    "class.name": -1
  },
  {
    "compound": "CCCCC(CCCCCC(CCCC)NCc1ccc2c(c1)OCO2)NCc1ccc2c(c1)OCO2 (stereo not given)",
    "class.name": 1
  },
  {
    "compound": "N#Cc1cccc(OCc2nc(N)nc(N)c2-c2ccc(Cl)c(Cl)c2)c1",
    "class.name": 1
  },
  {
    "compound": "Nc1nc(-c2ccccc2Cl)cc(-c2ccc(Cl)cc2Cl)n1",
    "class.name": -1
  },
  {
    "compound": "COc1cc(NC(=O)CCSc2nc3ccc(C)cc3c(=O)n2Cc2ccccc2)cc(OC)c1OC",
    "class.name": -1
  },
  {
    "compound": "Clc1ccccc1N=Cc1ccc2c(c1)OCO2",
    "class.name": -1
  },
  {
    "compound": "O=C1/C(=C\\c2ccc(Cl)cc2)CN(C(=O)c2ccccc2)C/C1=C\\c1ccc(Cl)cc1",
    "class.name": 1
  },
  {
    "compound": "O=C1/C(=C\\c2ccccc2)CN(C(=O)c2ccccc2)C/C1=C\\c1ccccc1",
    "class.name": 1
  },
  {
    "compound": "O=C1/C(=C\\c2cn(C(=O)c3ccc(Cl)cc3)c3ccccc23)c2ccccc2N1C(=O)c1ccc(Cl)cc1",
    "class.name": -1
  },
  {
    "compound": "CCOC(=O)CCC(NC(=O)c1ccc(N)cc1)C(=O)OCC (stereo not given)",
    "class.name": -1
  },
  {
    "compound": "OCC1OC(n2cnc3c(N/N=C\\c4ccccn4)ncnc32)C(O)C1O (stereo not given)",
    "class.name": 1
  },
  {
    "compound": "COc1cc(Cc2cc(-c3ccc(Cl)cc3)n[nH]c2=O)ccc1O",
    "class.name": -1
  },
  {
    "compound": "COc1cc(-c2cc(/C=C/C(=O)c3ccc4c(c3)OCO4)[nH]n2)cc(OC)c1OC",
    "class.name": -1
  },
  {
    "compound": "O=C(Nc1nc(-c2ccccc2Cl)cs1)c1cc(-c2ccc(Cl)cc2)nc2ccc(Cl)cc12",
    "class.name": 1
  },
  {
    "compound": "Nc1nc(Nc2ccccc2)n[nH]1",
    "class.name": -1
  },
  {
    "compound": "Cc1cc2ccccc2nc1-c1ccccc1F",
    "class.name": -1
  },
  {
    "compound": "S=c1[nH]ccn1-c1c(Cl)cccc1Cl",
    "class.name": -1
  },
  {
    "compound": "COc1cc2nc(Nc3cccc(NC(C)=O)c3)nc(N)c2cc1OC",
    "class.name": -1
  },
  {
    "compound": "COC(=O)c1c(-c2ccccc2)csc1NC(=O)c1c(-c2ccccc2)noc1C",
    "class.name": 1
  }
]
